Kindly supply the reported %Inh values for the records listed here.
- Tested on: EPHB6;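 note: KINOMEscan kinase panel screen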
- test-conditions: concentration: 1 μM,replicates: in singlicate; n = 1

Example cases with answers are listed next.
# molecule, %Inh
data = [
    ("COc1cc2c(Nc3ccc(NC(=O)c4ccccc4)cc3)ncnc2cc1OCCCN1CCOCC1 [GSK301329]", "79%"),
    ("CN1CCN(CCCNc2nccc(-c3c(-c4ccc(F)cc4)nn4cc(C(N)=O)ccc34)n2)CC1 [GW622475]", "44%"),
    ("Cc1ccc(C(=O)Nc2ccc(Oc3ccc4nc(NC(=O)C5CC5)cn4c3)c(F)c2)c(=O)n1-c1ccccc1", "99.1%"),
    ("Cn1ccc2ncnc(Oc3ccc(NC(=O)Nc4ccnc(C(F)(F)F)c4)c(Cl)c3)c21", "36%"),
    ("CC(=O)Nc1ccc(-c2cc3ncnc(SCC(=O)O)c3s2)cc1", "84%"),
]

Give %Inh for each listed item.
1. C[C@@H]1CNc2c(sc3ccc4nc(-c5ccncc5)ccc4c23)C(=O)N1
2. CCCC(=O)Nc1n[nH]c2ncccc12 [SB-601436]
3. O=C(Nc1ccc(Oc2ccc3nc(NC(=O)C4CC4)cn3n2)c(F)c1)c1cccn(-c2ccccc2)c1=O

Given back:
1: 18%; 2: 0%; 3: 77%

Asked: For the record Nc1nccc(-c2ccc3c(N)n[nH]c3c2)n1 [GSK1034945] , what value of %Inh is listed for EPHB6?
Given back: 2%
